System: 621-102 (TSC2-deficient)
experiment.summary: relative viability vs DMSO; higher = less cytotoxic
setup.conditions: 0.001 µM; serum: 10% FBS; 72 h
Counter-ions that a name gives are not always drawn.
measurement.type: relative viability

compound	tested.system	observed.value
C[C@]12CC[C@H](O)CC1=CC[C@@H]1[C@@H]2CC[C@]2(C)C(=O)CC[C@@H]12 [DHEA]	621-102 (TSC2-deficient)	105%

Q: Record request: relative viability value, item "Oc1ccc(-c2nc(-c3ccc(F)cc3)c(-c3ccncc3)[nH]2)cc1"
Ans: 107%

Q: Record request: relative viability value, item "C[C@@H]1CCO[C@H]2Cn3cc(C(=O)NCc4ccc(F)cc4F)c(=O)c(O)c3C(=O)N12"
Ans: 104%

Q: Record request: relative viability value, item Cc1ccccc1-n1c(Cn2ncc3c(N)ncnc32)nc2cccc(C)c2c1=O [PIK-293]
Ans: 114%

Q: Record request: relative viability value, item O=c1[nH]c2ccccc2n1CCCN1CCC(n2c(=O)[nH]c3cc(Cl)ccc32)CC1 [Domperidone (Motilium)]
Ans: 96%

Q: Record request: relative viability value, item N#C/C(=C\c1ccc(O)c(O)c1)C(=O)NCc1ccccc1 [AG-490]
Ans: 98.6%

Q: Record request: relative viability value, item CO/N=C(\C(=O)N[C@@H]1C(=O)N2C(C(=O)O)=C(CSC(=O)c3ccco3)CS[C@H]12)c1csc(N)n1 [Ceftiofur HCl]
Ans: 112%

* * *

System: 621-103 (TSC2-rescued)
experiment.summary: relative viability vs DMSO; higher = less cytotoxic
setup.conditions: 0.001 µM; serum: 10% FBS; 72 h
Each item that follows carries a reported relative viability.
Numbers only; they are read as %.

Example molecules with recorded relative viability:
molecule	observed.value
Cc1cc(Nc2cc(N3CCN(C)CC3)nc(/C=C/c3ccccc3)n2)n[nH]1	101
COc1cc(OC)c(NC(=O)Nc2cc(C)on2)cc1Cl	109
CC(C)(C(=O)NCC(F)(F)C(F)(F)F)C(=O)N[C@@H]1C(=O)Nc2ccccc2-c2ccccc21	104
C[C@]12CCC(=O)C(O)=C1CC[C@@H]1[C@@H]2CC[C@]2(C)C(=O)CC[C@@H]12	103

Q: Record request: relative viability value, item "CN(C)Cc1cccc(N/C(=C2\C(=O)Nc3cc(C(N)=O)ccc32)c2ccccc2)c1"
Ans: 97.2

Q: Record request: relative viability value, item "NC(=O)[C@@H](CCC(F)(F)F)N(Cc1ccc(-c2ncon2)cc1F)S(=O)(=O)c1ccc(Cl)cc1"
Ans: 102

Q: Record request: relative viability value, item Cc1cc(C(C)Nc2ccccc2)c2nc(N3CCOCC3)cc(=O)n2c1 (stereo not drawn)
Ans: 98.8

Q: Record request: relative viability value, item "C[C@]12CC[C@H](O)CC1=CC[C@@H]1[C@@H]2CC[C@]2(C)C(=O)CC[C@@H]12"
Ans: 81.7

Q: Record request: relative viability value, item "CNC(=O)c1ccc(C)c(-n2c(C)cc(OCc3ccc(F)cc3F)c(Br)c2=O)c1"
Ans: 102

* * *

Tested on: 621-102 (TSC2-deficient)
experiment.summary: relative viability vs DMSO (fraction); higher = less cytotoxic
setup.conditions: 5000 nM; serum: 0.1% FBS; 72 h
The label rule met is reserved for relative viability strictly under 0.1; rule not met covers values equal to or above it.

The following compounds have reported results that may help.
compound	tested.system	classification
COc1cc(Nc2ncc3c(n2)-c2ccc(Cl)cc2C(c2c(F)cccc2OC)=NC3)ccc1C(=O)O	621-102 (TSC2-deficient)	rule met
Cc1cc(Nc2cc(CN3CCOCC3)c3nc(C)c(Cc4ccc(Cl)cc4F)n3n2)n[nH]1	621-102 (TSC2-deficient)	rule met
CC(C)C[C@@H](C(=O)N[C@H](C(=O)OC1CCCC1)c1ccccc1)[C@H](O)C(=O)NO	621-102 (TSC2-deficient)	rule not met
NC(=O)Nc1cc(-c2cccc(F)c2)sc1C(=O)N[C@H]1CCCNC1	621-102 (TSC2-deficient)	rule met
Nc1ccccc1NC(=O)c1ccc(CNc2nccc(-c3cccnc3)n2)cc1	621-102 (TSC2-deficient)	rule met

Q: Hi there! Is relative viability for "Cn1cc(CNCC2CCN(c3ncc(C(=O)NO)cn3)CC2)c2ccccc21" below 0.1, do you know?
Ans: rule met

Q: Hi there! Is relative viability for "CO[C@H]1C[C@@H]2CC[C@@H](C)[C@@](O)(O2)C(=O)C(=O)N2CCCC[C@H]2C(=O)O[C@H]([C@H](C)C[C@@H]2CC[C@@H](OP(C)(C)=O)[C@H](OC)C2)CC(=O)[C@H](C)/C=C(\C)[C@@H](O)[C@@H](OC)C(=O)[C@H](C)C[C@H](C)/C=C/C=C/C=C/1C" below 0.1, do you know?
Ans: rule not met

Q: Hi there! Is relative viability for Nc1cccc2c1C(=O)N(C1CCC(=O)NC1=O)C2=O (configuration not stated) [Pomalidomide] below 0.1, do you know?
Ans: rule not met

Q: Hi there! Is relative viability for Nc1nc2[nH]cc(CCc3ccc(C(=O)N[C@@H](CCC(=O)O)C(=O)O)cc3)c2c(=O)[nH]1 [Pemetrexed disodium] below 0.1, do you know?
Ans: rule met

Q: Hi there! Is relative viability for "O=C1Nc2ccccc2/C1=C1/Nc2ccccc2C1=O" below 0.1, do you know?
Ans: rule not met

Q: Hi there! Is relative viability for "CC[C@@]1(O)C(=O)OCc2c1cc1n(c2=O)Cc2cc3ccccc3nc2-1" below 0.1, do you know?
Ans: rule met

Q: Hi there! Is relative viability for "COC1=C2C[C@@H](C)C[C@H](OC)[C@H](O)[C@@H](C)/C=C(\C)[C@H](OC(N)=O)[C@@H](OC)/C=C\C=C(/C)C(=O)NC(=CC1=O)C2=O" below 0.1, do you know?
Ans: rule met
